Cited source for all entries: patent US20240228489A1

Listing of entries alongside the reported Emax.
# assayed_system: human mAChR M1 (Homo sapiens, UniProt P11229)
# Sequence (P11229 whole entry): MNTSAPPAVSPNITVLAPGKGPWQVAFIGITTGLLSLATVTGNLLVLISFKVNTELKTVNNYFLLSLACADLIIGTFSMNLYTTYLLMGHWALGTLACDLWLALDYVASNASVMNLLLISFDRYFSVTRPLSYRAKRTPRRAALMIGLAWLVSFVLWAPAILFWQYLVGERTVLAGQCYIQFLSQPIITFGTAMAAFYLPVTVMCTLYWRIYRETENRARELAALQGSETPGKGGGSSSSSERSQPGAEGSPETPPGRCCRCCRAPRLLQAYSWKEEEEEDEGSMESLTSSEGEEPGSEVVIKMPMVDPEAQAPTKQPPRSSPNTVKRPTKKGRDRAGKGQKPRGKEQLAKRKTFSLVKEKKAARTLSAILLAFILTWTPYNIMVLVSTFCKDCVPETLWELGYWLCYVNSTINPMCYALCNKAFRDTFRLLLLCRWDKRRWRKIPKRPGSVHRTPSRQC
# assay_explanation: mAChR M1 cell-based functional assay (calcium mobilization), PAM mode: increase in the EC20 acetylcholine response
Answer format: numeric, % implied, no suffix.

input: Return Emax for the following compound: [2H]C1([2H])c2ncccc2C(=O)N1Cc1ccc(-c2ccc(OCCOC)c3nn(C)cc23)cc1F [Compound 116]
output: 72

input: Return Emax for the following compound: [2H]C1([2H])c2ncccc2C(=O)N1Cc1c(F)cc(-c2ccc(F)c3nn(C)cc23)cc1Cl [Compound 164]
output: 82

input: Return Emax for the following compound: [2H]C1([2H])c2ncccc2C(=O)N1Cc1ccc(-c2ccc(OC(F)(F)F)c3nn(C)cc23)cc1F [Compound 110]
output: 71

input: Return Emax for the following compound: [2H]C1([2H])c2ncccc2C(=O)N1Cc1c(F)cc(-c2cnc3nn(C)cc3c2)cc1Cl [Compound 168]
output: 86

input: Return Emax for the following compound: [2H]C1([2H])c2ncccc2C(=O)N1Cc1c(C)cc(-c2ccc(F)c3nn(C)cc23)cc1F [Compound 198]
output: 79

input: Return Emax for the following compound: [2H]C1([2H])c2ncccc2C(=O)N1Cc1ccc(-c2cccc3nn(C)cc23)cc1F [Compound 23]
output: 76

input: Return Emax for the following compound: [2H]C([2H])([2H])Oc1cc(-c2cc(F)c(CN3C(=O)c4cccnc4C3([2H])[2H])c(F)c2)c2cn(C([2H])([2H])[2H])nc2c1 [Compound 87]
output: 69

input: Return Emax for the following compound: [2H]C1([2H])c2ncccc2C(=O)N1Cc1c(F)cc(-c2ccc(Cl)c3nn(C)cc23)cc1F [Compound 40]
output: 66

input: Return Emax for the following compound: [2H]C1([2H])c2ncccc2C(=O)N1Cc1c(F)cc(-c2cc(F)c(F)c3nn(C)cc23)cc1F [Compound 105]
output: 27

input: Return Emax for the following compound: [2H]C1([2H])c2ncccc2C(=O)N1Cc1c(F)cc(-c2cc(F)cc3nn(C)cc23)cc1F [Compound 59]
output: 59

input: Return Emax for the following compound: [2H]C1([2H])c2ncc(O)cc2C(=O)N1Cc1c(F)cc(-c2cccc3nn(C([2H])([2H])[2H])cc23)cc1F [Compound 141]
output: 73

input: Return Emax for the following compound: [2H]C1([2H])c2ncccc2C(=O)N1Cc1c(F)cc(-c2cc(F)c(F)c3nn(C([2H])([2H])[2H])cc23)cc1F [Compound 106]
output: 30

input: Return Emax for the following compound: [2H]C([2H])([2H])Oc1cnc2c(c1)C(=O)N(Cc1ccc(-c3cccc4nn(C)cc34)cc1)C2([2H])[2H] [Compound 83]
output: 80

input: Return Emax for the following compound: [2H]C1([2H])c2ncccc2C(=O)N1Cc1c(F)cc(-c2cccc3c2cnn3C([2H])([2H])[2H])cc1F [Compound 67]
output: 71

input: Return Emax for the following compound: [2H]C1([2H])c2ncccc2C(=O)N1Cc1c(F)cc(-c2ccc(C)c3c2cnn3C([2H])([2H])[2H])cc1F [Compound 70]
output: 65

input: Return Emax for the following compound: [2H]C1([2H])c2ncccc2C(=O)N1Cc1ccc(-c2ccc3cncn3c2)cc1 [Compound 18]
output: 65
